Molecular target: NAD-dependent protein deacetylase sirtuin-2 (Homo sapiens)
Experiment: Inhibition of recombinant human C-terminal His-tagged SIRT2 (50 to 389 end residues) expressed in Escherichia coli at 10 uM using p53 derived (379 to 382 residues) fluorogenic peptide substrate RHKK(Ac)-AMC preincubated for 10 mins followed by substrate addition in presence of NAD+ by fluorescence assay relative to control
// inhibition lookup, one value per entry

Solved entries:
COc1cccc(Cn2cnc3sc4c(c3c2=O)CCC(NCc2c(C)nn(C)c2C)C4)c1 (centres undefined); 14%
COc1ccc(NC2CCc3c(sc4ncn(Cc5cccc6ccccc56)c(=O)c34)C2)cc1 (centres undefined); 52%

(Q) // returns reported inhibition for input COc1ccccc1NC1CCc2c(sc3ncn(Cc4cccc(-c5ccccc5)c4)c(=O)c23)C1 (centres undefined)
(A) 26%

(Q) // returns reported inhibition for input O=c1c2c3c(sc2ncn1Cc1cccc2ccccc12)CC(NCCc1ccncc1)CC3 (centres undefined)
(A) 75%

(Q) // returns reported inhibition for input COCCNC1CCc2c(sc3ncn(Cc4cccc(-c5ccccc5)c4)c(=O)c23)C1 (centres undefined)
(A) 70%

(Q) // returns reported inhibition for input COc1ccc(CNC2CCc3c(sc4ncn(Cc5cccc6ccccc56)c(=O)c34)C2)cc1 (centres undefined)
(A) 78%
